B1: BTBD10 (parent)
chain: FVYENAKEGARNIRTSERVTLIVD

- Variants of: B1
- procedure_details: protein stability index of a GFP-peptide fusion (GPS, HEK-293T) (PSI 1-6); higher = more stable;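 note: lentivirally expressed fusions sorted by FACS into six bins by GFP to DsRed ratio, PSI derived from sequencing read proportions per bin multiplied by bin number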
- details: c terminus: a fixed tail appended
Reported protein stability index values follow for various variants
assay_endpoint: protein stability index

- sequence_entry: "FVTENAKEGARNIRTSERVTLIVD [Y3T]"
  observed_value: 2.22
- sequence_entry: "MVYENAKEGARNIRTSERVTLIVD [F1M]"
  observed_value: 3.78
- sequence_entry: "FVYENAYEGARNIRTSERVTLIVD [K7Y]"
  observed_value: 1.75
- sequence_entry: "FHYENAKEGARNIRTSERVTLIVD [V2H]"
  observed_value: 3.07
- sequence_entry: "FIYENAKEGARNIRTSERVTLIVD [V2I]"
  observed_value: 2.37
- sequence_entry: "FVYENAKEGARNIRTSERVTLCVD [I22C]"
  observed_value: 2.33
- sequence_entry: "RVYENAKEGARNIRTSERVTLIVD [F1R]"
  observed_value: 3.3
- sequence_entry: "FVYENAKEGARNIITSERVTLIVD [R14I]"
  observed_value: 2.02
- sequence_entry: "QVYENAKEGARNIRTSERVTLIVD [F1Q]"
  observed_value: 2.9
- sequence_entry: "FVYENAKAGARNIRTSERVTLIVD [E8A]"
  observed_value: 1.52
- sequence_entry: "FVYENAKEGARNIRTSFRVTLIVD [E17F]"
  observed_value: 3.19
- sequence_entry: "FVYENAIEGARNIRTSERVTLIVD [K7I]"
  observed_value: 2.5
- sequence_entry: "FVYENAKEGARNARTSERVTLIVD [I13A]"
  observed_value: 1.77
- sequence_entry: "FVYENAKEGARNIRTSEDVTLIVD [R18D]"
  observed_value: 2.61
- sequence_entry: "FVYENAEEGARNIRTSERVTLIVD [K7E]"
  observed_value: 2.74
- sequence_entry: "FVYENAKEGARNIRCSERVTLIVD [T15C]"
  observed_value: 1.91
- sequence_entry: "FVYENAKEGAFNIRTSERVTLIVD [R11F]"
  observed_value: 2.38
- sequence_entry: "FVYENAVEGARNIRTSERVTLIVD [K7V]"
  observed_value: 1.93
- sequence_entry: "FVYQNAKEGARNIRTSERVTLIVD [E4Q]"
  observed_value: 1.94
- sequence_entry: "FVYENAKEGARNIDTSERVTLIVD [R14D]"
  observed_value: 2.33
- sequence_entry: "FVHENAKEGARNIRTSERVTLIVD [Y3H]"
  observed_value: 2.11
- sequence_entry: "FVYENAKEGAYNIRTSERVTLIVD [R11Y]"
  observed_value: 1.59
- sequence_entry: "FVYENAKEQARNIRTSERVTLIVD [G9Q]"
  observed_value: 2.09
- sequence_entry: "FVYENAKEGARNIRTMERVTLIVD [S16M]"
  observed_value: 2.28
- sequence_entry: "FVYENAKEGAMNIRTSERVTLIVD [R11M]"
  observed_value: 1.59
- sequence_entry: "FVYENQKEGARNIRTSERVTLIVD [A6Q]"
  observed_value: 1.96
- sequence_entry: "FVYENAKEGARNIRTSERVTLIVH [D24H]"
  observed_value: 1.66
- sequence_entry: "FVYENAKEGARNIRTSERVKLIVD [T20K]"
  observed_value: 2.07
- sequence_entry: "FVYDNAKEGARNIRTSERVTLIVD [E4D]"
  observed_value: 2.08
- sequence_entry: "FVYENAKEGARNIRTSERVTLIFD [V23F]"
  observed_value: 1.99
- sequence_entry: "FVYENAKEGARNIKTSERVTLIVD [R14K]"
  observed_value: 1.68
- sequence_entry: "FVYENPKEGARNIRTSERVTLIVD [A6P]"
  observed_value: 2.41
- sequence_entry: "FVYENAKEGLRNIRTSERVTLIVD [A10L]"
  observed_value: 1.89
- sequence_entry: "FTYENAKEGARNIRTSERVTLIVD [V2T]"
  observed_value: 3.08
- sequence_entry: "FVYENAKEGARNIRKSERVTLIVD [T15K]"
  observed_value: 2.25
- sequence_entry: "FVYENAKEGARNIRTSERVTEIVD [L21E]"
  observed_value: 2.79
- sequence_entry: "FVYENAKEGARNIRDSERVTLIVD [T15D]"
  observed_value: 2.37
- sequence_entry: "FVYENAKEGARNIRTSERVTLIVM [D24M]"
  observed_value: 1.95
- sequence_entry: "FVYENEKEGARNIRTSERVTLIVD [A6E]"
  observed_value: 2.8
- sequence_entry: "FVYENAKEGTRNIRTSERVTLIVD [A10T]"
  observed_value: 2.03
- sequence_entry: "FVYENAKEGPRNIRTSERVTLIVD [A10P]"
  observed_value: 2.7
- sequence_entry: "FVYENAKEGARNIRRSERVTLIVD [T15R]"
  observed_value: 2.06
- sequence_entry: "FVYENAKEGARNIRTSETVTLIVD [R18T]"
  observed_value: 1.98
- sequence_entry: "FVYENAKEGARNICTSERVTLIVD [R14C]"
  observed_value: 1.83
- sequence_entry: "FVYENAKEGARNDRTSERVTLIVD [I13D]"
  observed_value: 2.52
- sequence_entry: "FVYENAKEGARNISTSERVTLIVD [R14S]"
  observed_value: 2.33
- sequence_entry: "FVYENAKEGARNIRTSERVTLPVD [I22P]"
  observed_value: 2.89
- sequence_entry: "FVYENAKEGARNIRTSERVTLWVD [I22W]"
  observed_value: 3.09
- sequence_entry: "FVYENAKEEARNIRTSERVTLIVD [G9E]"
  observed_value: 2.33
- sequence_entry: "FVYENAKEGARNIRTSERTTLIVD [V19T]"
  observed_value: 2.39
- sequence_entry: "FVYENHKEGARNIRTSERVTLIVD [A6H]"
  observed_value: 2.1
- sequence_entry: "FVYENAKEGARNIRTAERVTLIVD [S16A]"
  observed_value: 1.99
- sequence_entry: "FVYENAKEGARNIRTSERVTLIVS [D24S]"
  observed_value: 1.18
- sequence_entry: "FVYENSKEGARNIRTSERVTLIVD [A6S]"
  observed_value: 1.78
- sequence_entry: "FVYENAKEGARNIRTSERNTLIVD [V19N]"
  observed_value: 2.43
- sequence_entry: "FVYENAKEGARNIRFSERVTLIVD [T15F]"
  observed_value: 1.99
- sequence_entry: "FWYENAKEGARNIRTSERVTLIVD [V2W]"
  observed_value: 1.97
- sequence_entry: "FVYENAKIGARNIRTSERVTLIVD [E8I]"
  observed_value: 1.87
- sequence_entry: "FVYENAKEGARNIRTSEEVTLIVD [R18E]"
  observed_value: 2.29
- sequence_entry: "FVYENAKEGARNIRTSEQVTLIVD [R18Q]"
  observed_value: 1.79
- sequence_entry: "FVYENAKEGARNIRTSERVCLIVD [T20C]"
  observed_value: 2.74
- sequence_entry: "FVYENAKEGARNIRTSERVTLIPD [V23P]"
  observed_value: 3.05
- sequence_entry: "FVYENAKEGARNIRTWERVTLIVD [S16W]"
  observed_value: 2.1
- sequence_entry: "FVYENAKEGARNIRSSERVTLIVD [T15S]"
  observed_value: 2.38
- sequence_entry: "FVYENAAEGARNIRTSERVTLIVD [K7A]"
  observed_value: 2.23
- sequence_entry: "FVYENAMEGARNIRTSERVTLIVD [K7M]"
  observed_value: 1.82
- sequence_entry: "FVYENAKEGARNIRTSERVTLIVG [D24G]"
  observed_value: 1.82
- sequence_entry: "FVYENAKEGARNIRTSEAVTLIVD [R18A]"
  observed_value: 1.77
- sequence_entry: "FVYENAKEGARNIRTSERVTLIYD [V23Y]"
  observed_value: 1.7
- sequence_entry: "FVYENAKEGARNIRTSERRTLIVD [V19R]"
  observed_value: 2.34
- sequence_entry: "FVYENAKEGARNIRTSERVALIVD [T20A]"
  observed_value: 1.73
- sequence_entry: "FAYENAKEGARNIRTSERVTLIVD [V2A]"
  observed_value: 2.78
- sequence_entry: "FVYENAKEGARNIRTKERVTLIVD [S16K]"
  observed_value: 2.09
- sequence_entry: "FEYENAKEGARNIRTSERVTLIVD [V2E]"
  observed_value: 3.83
- sequence_entry: "FVYENAKEGARNIRTRERVTLIVD [S16R]"
  observed_value: 2.34
- sequence_entry: "FVYENAKEGARNIRTSDRVTLIVD [E17D]"
  observed_value: 1.74
- sequence_entry: "SVYENAKEGARNIRTSERVTLIVD [F1S]"
  observed_value: 3.23
- sequence_entry: "FVYENAKEGARNIRGSERVTLIVD [T15G]"
  observed_value: 2.36
- sequence_entry: "FVDENAKEGARNIRTSERVTLIVD [Y3D]"
  observed_value: 3.22
- sequence_entry: "FVYENAKEGWRNIRTSERVTLIVD [A10W]"
  observed_value: 2.32
- sequence_entry: "FVYENAKEGARNIRTSERVMLIVD [T20M]"
  observed_value: 1.82
- sequence_entry: "FVYENAKEGARNIRTHERVTLIVD [S16H]"
  observed_value: 1.78
- sequence_entry: "FVYENAKEGARNIRTSERPTLIVD [V19P]"
  observed_value: 2.73
- sequence_entry: "FVYEGAKEGARNIRTSERVTLIVD [N5G]"
  observed_value: 2.47
- sequence_entry: "FVYENAKEGARNKRTSERVTLIVD [I13K]"
  observed_value: 2
- sequence_entry: "FVYENAKEGARNIRTSERVTLIVR [D24R]"
  observed_value: 1.93
- sequence_entry: "FVYENAKEGARNIRTSERVTLIVA [D24A]"
  observed_value: 1.49
- sequence_entry: "AVYENAKEGARNIRTSERVTLIVD [F1A]"
  observed_value: 3.21
- sequence_entry: "IVYENAKEGARNIRTSERVTLIVD [F1I]"
  observed_value: 2.71
- sequence_entry: "FVYENAKEPARNIRTSERVTLIVD [G9P]"
  observed_value: 2.02
- sequence_entry: "FPYENAKEGARNIRTSERVTLIVD [V2P]"
  observed_value: 3.53
